Tested on: MIA PaCa-2
method: Antiproliferative activity against human MIAPaCa2 cells assessed as reduction in cell viability after 72 hrs by MTT assay
Format: functional, cell-based
applied conditions: MIA PaCa-2, 72 h
Reported IC50 is given for each of the following molecules.

Field: example entries. Status: answers known.
Cc1ccc([P+](CCC(=O)Nc2ccc3c(c2)B(O)OC3)(c2ccc(C)cc2)c2ccc(C)cc2)cc1 = 44 µM
O=C(CC[P+](c1ccc(F)cc1)(c1ccc(F)cc1)c1ccc(F)cc1)Nc1ccc2c(c1)B(O)OC2 = > 100 µM
COc1ccc([P+](CCC(=O)Nc2ccc3c(c2)B(O)OC3)(c2ccc(OC)cc2)c2ccc(OC)cc2)cc1 = > 100 µM

Using the record for O=C(CC[P+](c1ccccc1)(c1ccccc1)C1CCCCC1)Nc1ccc2c(c1)B(O)OC2 , report its IC50.
> 100 µM

Quick check: IC50 of O=C(CC[P+](c1ccccc1)(c1ccccc1)c1ccccc1)Nc1ccc2c(c1)B(O)OC2 ?
> 100 µM

# input molecule: O=C(CCBr)Nc1ccc2c(c1)B(O)OC2 ; wanted: its IC50
> 100 µM
